Hey, just so you know, these numbers are from paper PMC9516332.

Target: panel of 255 wild-type kinases (Homo sapiens)
Test: Kinase panel profiling at 1 µmol/L (MSA or IMAP), percentage inhibition
Format: biochemical
Settings: kinase SPHK1; 1 µmol/L single concentration; read-out: %-inhibition at 1 µmol/L, SPHK1
Documented inhibition at 1 µM across a set of compounds

smiles_data	system	inhibition at 1 µM, %
C[C@H](Nc1ncnc2nc[nH]c12)c1cc2cccc(Cl)c2c(=O)n1-c1ccccc1	panel of 255 wild-type kinases (Homo sapiens)	-3.25
Cn1cc(-c2cc3c(N4CCN(c5ncc([C@@](C)(N)c6ccc(F)cc6)cn5)CC4)ncnn3c2)cn1	panel of 255 wild-type kinases (Homo sapiens)	-1.72
COc1cc2ncnc(Nc3ccc(F)c(Cl)c3)c2cc1NC(=O)/C=C/CN1CCCCC1	panel of 255 wild-type kinases (Homo sapiens)	-15
CN1CCN(c2ccc(C(=O)Nc3n[nH]c4ccc(Cc5cc(F)cc(F)c5)cc34)c(NC3CCOCC3)c2)CC1	panel of 255 wild-type kinases (Homo sapiens)	-4
CCc1nc(C(N)=O)c(Nc2ccc(N3CCC(N4CCN(C)CC4)CC3)c(OC)c2)nc1NC1CCOCC1	panel of 255 wild-type kinases (Homo sapiens)	-6
FC(F)(F)c1ccc(CNc2ccc(Cc3c[nH]c4ncc(Cl)cc34)cn2)cn1	panel of 255 wild-type kinases (Homo sapiens)	-5
Cc1nc(NC(=O)N2CCC[C@H]2C(N)=O)sc1-c1ccnc(C(C)(C)C(F)(F)F)c1	panel of 255 wild-type kinases (Homo sapiens)	-5.44
Cn1cnc2c(F)c(Nc3ccc(Br)cc3Cl)c(C(=O)NOCCO)cc21	panel of 255 wild-type kinases (Homo sapiens)	-8
COC(=O)N[C@@H](C)CNc1nccc(-c2cn(C(C)C)nc2-c2cc(Cl)cc(NS(C)(=O)=O)c2F)n1	panel of 255 wild-type kinases (Homo sapiens)	-5.65
CCN1CCN(c2ccc(Nc3cc(N(C)C(=O)Nc4c(Cl)c(OC)cc(OC)c4Cl)ncn3)cc2)CC1	panel of 255 wild-type kinases (Homo sapiens)	-14

###

Target: panel of 255 wild-type kinases (Homo sapiens)
Test: Kinase panel profiling at 1 µmol/L (MSA or IMAP), percentage inhibition
Type: biochemical
Conditions: kinase PKACβ; 1 µmol/L single concentration; read-out: %-inhibition at 1 µmol/L, PKACβ
Items are presented alongside their recorded inhibition at 1 µM.

molecule	inhibition at 1 µM, %
CN1CCN(c2ccc(C(=O)Nc3n[nH]c4ccc(Cc5cc(F)cc(F)c5)cc34)c(NC3CCOCC3)c2)CC1 [entrectinib]	-21
Cn1cnc2c(F)c(Nc3ccc(Br)cc3Cl)c(C(=O)NOCCO)cc21 [selumetinib]	-21
O=C(Nc1cnn2ccc(N3CCC[C@@H]3c3cc(F)ccc3F)nc12)N1CC[C@H](O)C1 [larotrectinib]	-14
C=CC(=O)N1CCC([C@@H]2CCNc3c(C(N)=O)c(-c4ccc(Oc5ccccc5)cc4)nn32)CC1 [zanubrutinib]	-8
FC(F)(F)c1ccc(CNc2ccc(Cc3c[nH]c4ncc(Cl)cc34)cn2)cn1 [pexidartinib]	4

###

Tested on: 134 cancer cell lines
Test: Cell viability assay (ATPlite, 72 hours), IC50 on cancer cell line panel
Conditions: Homo sapiens, SW837, read-out: IC50 in cell proliferation assay, cell line SW837

molecule	IC50
CCN1CCN(c2ccc(Nc3cc(N(C)C(=O)Nc4c(Cl)c(OC)cc(OC)c4Cl)ncn3)cc2)CC1 [infigratinib]	> 3.16 µM
COC(=O)N[C@@H](C)CNc1nccc(-c2cn(C(C)C)nc2-c2cc(Cl)cc(NS(C)(=O)=O)c2F)n1 [encorafenib]	> 31.6 µM
CCCS(=O)(=O)Nc1ccc(F)c(C(=O)c2c[nH]c3ncc(-c4ccc(Cl)cc4)cc23)c1F [vemurafenib]	> 31.6 µM
FC(F)(F)c1ccc(CNc2ccc(Cc3c[nH]c4ncc(Cl)cc34)cn2)cn1 [pexidartinib]	> 31.6 µM
